Attribution: patent US20250276075A1

Here the recorded Affinity ELISA CPE mutant ratio (1:9, pH 6.0/7.4) is given for each entry.
- tested system: Axl (UniProt P30530)
- Sequence (P30530 26-451 limits assumed): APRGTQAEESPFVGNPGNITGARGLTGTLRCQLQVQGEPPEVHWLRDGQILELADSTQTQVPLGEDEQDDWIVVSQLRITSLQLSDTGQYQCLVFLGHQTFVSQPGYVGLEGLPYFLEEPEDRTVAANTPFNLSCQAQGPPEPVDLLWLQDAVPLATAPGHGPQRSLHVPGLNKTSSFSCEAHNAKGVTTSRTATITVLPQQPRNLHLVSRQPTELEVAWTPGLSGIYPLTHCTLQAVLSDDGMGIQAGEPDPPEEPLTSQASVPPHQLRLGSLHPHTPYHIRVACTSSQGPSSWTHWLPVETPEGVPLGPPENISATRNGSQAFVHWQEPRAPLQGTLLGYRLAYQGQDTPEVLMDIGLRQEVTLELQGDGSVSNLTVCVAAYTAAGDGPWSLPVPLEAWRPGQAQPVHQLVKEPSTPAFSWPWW
- test description: ELISA, 1:9 dilution
// return a plain number; no unit text

Examples with their reported Affinity ELISA CPE mutant ratio (1:9, pH 6.0/7.4) follow.
Data request: I'd like to know its Affinity ELISA CPE mutant ratio (1:9, pH 6.0/7.4). The binder in question is LC-P095C (antibody, V domains shown) VH: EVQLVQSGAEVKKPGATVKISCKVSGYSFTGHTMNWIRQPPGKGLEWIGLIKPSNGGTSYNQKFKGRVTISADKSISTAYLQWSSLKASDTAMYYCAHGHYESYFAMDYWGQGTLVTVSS VL: DIQMTQSPSSLSASVGDRVTITCKASQDVSSAVAWYQQKPGQAPRLLIYWASTRHTGVPSRFSGSGSGTEFTLTISSLQPDDFATYYCQEHFSTCLTFGQGTKVEIK
Data returned: 2.63

Data request: Entry HC-E102N (antibody, V domains shown) VH: EVQLVQSGAEVKKPGATVKISCKVSGYSFTGHTMNWIRQPPGKGLEWIGLIKPSNGGTSYNQKFKGRVTISADKSISTAYLQWSSLKASDTAMYYCAHGHYNSYFAMDYWGQGTLVTVSS VL: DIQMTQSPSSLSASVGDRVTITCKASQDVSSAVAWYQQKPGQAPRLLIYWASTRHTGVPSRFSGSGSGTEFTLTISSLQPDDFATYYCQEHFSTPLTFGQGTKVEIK please
Data returned: 1.57

Data request: Entry HC-A106L (antibody, V domains shown) VH: EVQLVQSGAEVKKPGATVKISCKVSGYSFTGHTMNWIRQPPGKGLEWIGLIKPSNGGTSYNQKFKGRVTISADKSISTAYLQWSSLKASDTAMYYCAHGHYESYFLMDYWGQGTLVTVSS VL: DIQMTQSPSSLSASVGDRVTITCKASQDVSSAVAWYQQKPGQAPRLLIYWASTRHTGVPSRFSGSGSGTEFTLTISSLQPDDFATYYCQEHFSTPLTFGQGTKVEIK please
Data returned: 1.61

Data request: Entry HC-F105V (antibody, V domains shown) VH: EVQLVQSGAEVKKPGATVKISCKVSGYSFTGHTMNWIRQPPGKGLEWIGLIKPSNGGTSYNQKFKGRVTISADKSISTAYLQWSSLKASDTAMYYCAHGHYESYVAMDYWGQGTLVTVSS VL: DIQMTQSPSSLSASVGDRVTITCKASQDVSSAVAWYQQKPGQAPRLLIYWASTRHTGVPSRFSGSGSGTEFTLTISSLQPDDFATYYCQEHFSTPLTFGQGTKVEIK please
Data returned: 2.8

Now consider the entry below.
Data request: I'd like to know its Affinity ELISA CPE mutant ratio (1:9, pH 6.0/7.4). The binder in question is HC-W110A (antibody, V domains shown) VH: EVQLVQSGAEVKKPGATVKISCKVSGYSFTGHTMNWIRQPPGKGLEWIGLIKPSNGGTSYNQKFKGRVTISADKSISTAYLQWSSLKASDTAMYYCAHGHYESYFAMDYAGQGTLVTVSS VL: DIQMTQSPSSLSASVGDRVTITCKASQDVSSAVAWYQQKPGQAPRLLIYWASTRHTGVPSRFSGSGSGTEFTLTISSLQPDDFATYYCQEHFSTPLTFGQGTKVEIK
Data returned: 1.2
